Measured RLU of individual entries
Molecular target: T1, human CD71 extracellular domain (CD71-ECD) (human, UniProt P02786 89-760)
T1 construct: also called hCD71; human CD71-ECD
T1 sequence (P02786 89-760): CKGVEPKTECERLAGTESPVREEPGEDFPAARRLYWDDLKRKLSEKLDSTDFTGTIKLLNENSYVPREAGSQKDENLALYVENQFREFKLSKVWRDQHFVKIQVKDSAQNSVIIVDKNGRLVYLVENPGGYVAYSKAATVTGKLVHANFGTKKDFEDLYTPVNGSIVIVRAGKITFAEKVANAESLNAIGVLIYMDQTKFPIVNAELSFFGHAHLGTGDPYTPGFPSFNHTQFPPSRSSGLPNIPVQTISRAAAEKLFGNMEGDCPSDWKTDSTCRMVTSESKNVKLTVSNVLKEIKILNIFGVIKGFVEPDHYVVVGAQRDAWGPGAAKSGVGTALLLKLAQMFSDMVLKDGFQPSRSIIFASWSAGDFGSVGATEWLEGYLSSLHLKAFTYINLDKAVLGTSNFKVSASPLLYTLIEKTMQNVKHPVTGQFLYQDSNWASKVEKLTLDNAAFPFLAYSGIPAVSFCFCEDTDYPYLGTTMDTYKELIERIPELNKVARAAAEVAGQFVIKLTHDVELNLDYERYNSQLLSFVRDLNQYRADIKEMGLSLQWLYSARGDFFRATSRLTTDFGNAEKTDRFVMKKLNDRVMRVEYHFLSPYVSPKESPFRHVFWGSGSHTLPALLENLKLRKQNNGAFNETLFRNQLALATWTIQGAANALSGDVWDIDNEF
Experiment: primary ELISA; further: test concentration or dose not given here

binder	unit.abbrev	RLU
CD71-binding FN3 domain SEQ ID NO: 290 (designed binder) MSLPAPKNLVVSRVTEDSARLSWTAPDAAFDSFFIGYLEPQPPGEAIHLYVPGSERSYDLTGLKPGTEYNVTIQGVKGGFPSEPLVATFTT	RLU	5.98e+06
CD71-binding FN3 domain SEQ ID NO: 306 (designed binder) MSLPAPKNLVVSRVTEDSARLSWTAPDAAFDSFEIGHFENLYLGEAIVLTVPGSERSYDLTGLKPGIEYWVQIGGVKGGVWSVSLSAIFTT	RLU	1.17e+06
CD71-binding FN3 domain SEQ ID NO: 332 (designed binder) MSLPAPKNLVVSRVTEDSARLSWTAPDAAFDSFEIGYWEGPGGGEAIILVVPGSERSYDLTGLKPGTEYYVQIGGVKGGDWSTPLWATFTT	RLU	1.7e+06
CD71-binding FN3 domain SEQ ID NO: 257 (designed binder) MSLPAPKNLVVSHVTEDSARLSWTAPDAAFDSFEIGYWENAYKGEAIVLTVPGSERSYDLTGLKPGTEYVVFIGGVKGGVWSVPLSAIFTT	RLU	2.83e+06
CD71-binding FN3 domain SEQ ID NO: 328 (designed binder) MSLPAPKNLVVSRVTEDSARLSWTAPDAAFDSFEIGYFGNLYLGEAIVLTVPGSERSYDLTGLKPGTEYWVQIGGVKGGNWSAPLSAIFTT	RLU	2.18e+06
CD71-binding FN3 domain SEQ ID NO: 241 (designed binder) MSLPAPKNLVVSRVTEDSARLSWTAPDAAFDSFMIAYDEFIVWGEAVVLTVPGSERSYDLTGLKPGTEYLVEILGVKGGTISGPLSAIFTT	RLU	3.4e+06
CD71-binding FN3 domain SEQ ID NO: 263 (designed binder) MSLPAPKNLVVSRVTEDSARLSWTAPDAAFDSFEIGYFENLYLGEAIVLTVPGSERSYDLTGLKPGTEYWVQIGGVKGGNWSSPLSAIFTT	RLU	3.32e+06
CD71-binding FN3 domain SEQ ID NO: 268 (designed binder) MSLPAPKNLVVSRVTEDSARLSWTAPDAAFDSFEIGYFENLYLGEAIVLTVPGSERSYDPTGLKPGTEYWVQIGGVKGGNWSAPLSAIFTT	RLU	4.1e+06
CD71-binding FN3 domain SEQ ID NO: 314 (designed binder) MGSLPAPKNLVVSRVTEDSARLSWTAPDAAFDSFEIGYFENLYLGEAIVLTVPGSERSYDLTGLKPGTEYWVQIGGVKGGNWSAPLSAIFTT	RLU	3.15e+06
CD71-binding FN3 domain SEQ ID NO: 315 (designed binder) MSLPAPKNLVVSRVTEDSARLSWTAPDAAFDSFEIGYFENLYLGEAIVLTVPGSERSYDLTGLKPGTEYWVQIGGVKGGNWSAPLSAISTT	RLU	2.49e+06
CD71-binding FN3 domain SEQ ID NO: 247 (designed binder) MSLPAPKNLVVSRVTEDSARLSWTAPDAAFDSFEIGYFENLYLGEAIVLTVPGSERSYDLTGLKPGTEYWVQIGGVKGGEWSAPLSAIFTT	RLU	2.89e+06
CD71-binding FN3 domain SEQ ID NO: 242 (designed binder) MSLPAPKNLVVSRVTEDSARLSWTAPDAAFDSFEIGYFENLYLGEAIVLTVPGSERSYDLTGLKPGTKYWVQIGGVKGGNWSAPLSAIFTT	RLU	1.61e+06
CD71-binding FN3 domain SEQ ID NO: 274 (designed binder) MSLPAPKNLVVSRVTEDSARLSWTAPDAAFDSFEIVYWEQVGVGEAIVLTVPGSERSYDLTGLKPGTEYWVQIGGVKGGGFSEPLSAIFTT	RLU	2.37e+06
CD71-binding FN3 domain SEQ ID NO: 277 (designed binder) MSLPAPKNLVVSRVTEDSARLSWTAPDAAFDSFEIGYFELTYYGEAIVLTVPGSERSYDLTGLKPGTEYWVQIGGVKGGGFSEPLSAIFTT	RLU	4.13e+06
CD71-binding FN3 domain SEQ ID NO: 251 (designed binder) MSLPAPKNLVVSRVTEDSARLSWTAPDAAFDSFEIGYFENLYLGEAIVLTVPGSERSYDLTGLKPGTEYWVQIGGVKGGNWSAPLVATFTT	RLU	4.09e+06
CD71-binding FN3 domain SEQ ID NO: 244 (designed binder) MSLPAPKNLVVSRVTEDSARLSWTAPDAAFDSFEIGYFENLYLGEAIVLTVPGSERSYDLTGLKPGTEYVVFIGGVKGGEYSIPLSAIFTT	RLU	3.25e+06
CD71-binding FN3 domain SEQ ID NO: 256 (designed binder) MSLPVPKNLVVSRVTEDSARLSWTAPDAAFDSFEIGYFENLYLGEAIVLTVPGSERSYDLTGLKPGTEYWVQIGGVKGGNWSAPLSAIFTT	RLU	2.39e+06
CD71-binding FN3 domain SEQ ID NO: 310 (designed binder) MSLPAPKNLVVSRVTEDSARLSWTAPDAAFDSFEIDYGEYSQAGEAIGLLVPGSERSYDLTGLKPGTEYAVWIGGVKGGFFSTPLEADFTT	RLU	2.22e+06
